These data points were gathered from ChEMBL document CHEMBL1125069.

- Test system: HL-60
- TEST PROTOCOL: In vitro inhibitory activity against HL-60 human promyelocytic leukemia cells
- Assay type: functional, cell-based
PARAMETER: pIC50
Reminder that pIC50 is minus the log10 of a molar concentration.

In: Endpoint output: pIC50 of NC(=O)c1csc([C@@H]2O[C@H](CO)[C@@H](O)[C@H]2O)n1 . Value?
Out: 5.21
